test system: ACHN cell line; test: drug screen of the SelleckChem kinase inhibitor library with and without 5 uM SU-329, Cell-Titer Glo after 5 days; type: cell-based; conditions: kinase inhibitor at 200 nM with and without 5 uM SU329; ACHN cell line; 5 days; Cell-Titer Glo
Where a name gives a salt, the structure may show the parent alone.
Endpoint: log2fc

INPUT: // Input: COc1cc2ncnc(Nc3ccc(F)c(Cl)c3)c2cc1OCCCN1CCOCC1 [Gefitinib (ZD1839)] . Output its log2fc only.
OUTPUT: 0.4905

INPUT: For CCN(CCO)CCCOc1ccc2c(Nc3cc(CC(=O)Nc4cccc(F)c4)[nH]n3)ncnc2c1 , write its log2fc.
OUTPUT: 0.7387

INPUT: Given the compound Nc1cccc(-c2cc3c(Oc4cccc(O)c4)ncnc3[nH]2)c1 , write its reported log2fc.
OUTPUT: 0.52

INPUT: Query log2fc for COc1ccc(-c2ccc3c(N4CCOCC4)nc(N4C[C@@H](C)O[C@@H](C)C4)nc3n2)cc1CO
OUTPUT: −1.551

INPUT: Determine its reported log2fc: CN1CC[C@H](c2c(O)cc(O)c3c(=O)cc(-c4ccccc4Cl)oc23)[C@H](O)C1 [Flavopiridol HCl]
OUTPUT: 1.693

INPUT: Item OCCn1cc(-c2cnc3nnn(Cc4ccc5ncccc5c4)c3n2)cn1 : provide log2fc
OUTPUT: 0.2177

INPUT: Retrieve log2fc measured for Cc1ccc(NC(=O)c2cccc(N(C)C)c2)cc1NC(=O)c1ccc(O)cc1 and print it.
OUTPUT: 0.2177

INPUT: Please give the documented log2fc of Nc1nc(N)c(N=O)c(OCC2CCCCC2)n1
OUTPUT: −0.2463
